These data points were gathered from PubChem BioAssay AID1996.

test.conditions: buffer; pH 7.4; 200.0 µM
Entries and their solubility kinetic values follow.

Record excerpt, results attached:
O=C(Nc1ccc(N2CCOCC2)cc1)c1nc2ccccc2s1    < 0.2 µg/mL
C=CCNC(=S)NNC(=O)C(CC(C)C)CC(C)O (centres undefined)    > 43.1 µg/mL
COc1ccc(NS(=O)(=O)c2cc(C(=O)N3CCCCCC3)ccc2C)cc1    > 60.4 µg/mL

Next item in the queue.
Request: Given the molecule O=C1c2cccc3c([N+](=O)[O-])ccc(c23)C(=O)N1O , what is its reported solubility kinetic?
Response: > 38.7 µg/mL

* * *

test.conditions: buffer; pH 7.4; 200.0 µM
property.label: solubility kinetic (µg/mL)
Your answer is read as µg/mL, so omit the unit and give the number.

Record excerpt, results attached:
CC(C)CC(=O)N1CCN(Cc2ccccc2Cl)CC1    30.7
Cc1ccc(SCC(=O)O/N=C(\N)c2ccncc2)cc1    29.4
O=C1/C(=C/c2ccsc2)N2CCC1CC2    25.9
Cc1cccc(C(=O)N[C@H](C(=O)NCc2cccs2)C(C)C)c1    7.5
Oc1ccc(-c2csc(Nc3ccccn3)n2)c(O)c1    4.4
Cc1noc(C)c1C(=O)NCc1ccccc1F    34.7
O=C(NCCC1CC1(Cl)Cl)c1ccc([N+](=O)[O-])cc1 (centres undefined)    36.9
Cn1cc(C(=O)OCC(=O)NC2CCCCC2)c2ccccc21    4.8
COc1ccc(C2=NOC(C(=O)Nc3cccnc3)C2)cc1OC (centres undefined)    46.8
Cc1ccc(NC(=O)CSc2cccc3cccnc23)c(C)c1    5.2

Request: Given the compound COc1cc(N)c(Cl)cc1C(=O)OCC(=O)NC(=O)NCc1ccco1 , what is its reported solubility kinetic?
Response: 5.3

Request: Given the compound COc1ccc(/C=C/C(=O)NCCSCc2ccco2)cc1OC , what is its reported solubility kinetic?
Response: 41.9

Request: Given the compound COCCCNCC(O)C(F)(F)F (centres undefined) , what is its reported solubility kinetic?
Response: 24.4

Request: Given the compound COc1ccc2occ(C(=O)c3ccc(N)cc3)c2c1 , what is its reported solubility kinetic?
Response: 1.7

Request: Given the compound CCOc1ccc(S(=O)(=O)Nc2ccc3c(c2)OCO3)cc1 , what is its reported solubility kinetic?
Response: 45.4

Request: Given the compound O=C1NC(=Nc2ccccc2)S/C1=C/c1cccnc1 , what is its reported solubility kinetic?
Response: 1.2

Request: Given the compound O=C(Nc1ccccn1)c1ccc(C(=O)c2ccccc2)cc1 , what is its reported solubility kinetic?
Response: 21.6

Request: Given the compound Cc1ccc(NC(=S)Nc2ccc(F)cc2)cc1C , what is its reported solubility kinetic?
Response: 12.2

Request: Given the compound O=C(NCCCNC(=O)c1ccc(Cl)cc1Cl)c1ccco1 , what is its reported solubility kinetic?
Response: 50.1

Request: Given the compound CCOc1ccc(N2CC(C(=O)NC3CCCCCC3)CC2=O)cc1 (centres undefined) , what is its reported solubility kinetic?
Response: 15.2

Request: Given the compound Cc1cc(C)nc(SCC(=O)c2ccc(F)cc2)n1 , what is its reported solubility kinetic?
Response: 38.5
